Ref: the Human Domainome abundance scans (Beltran et al. 2025)

B1: Retinoic acid receptor beta, residues 85 to 161; numbered along this chain, P10826 (parent)
chain: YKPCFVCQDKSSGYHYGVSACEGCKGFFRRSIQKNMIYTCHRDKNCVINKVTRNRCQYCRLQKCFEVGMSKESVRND

# Variants of: B1
# METHOD_SUMMARY: abundance fitness (aPCA) (normalised: wild type 0, dead -1); higher = more abundant; growth selection in yeast, the domain comes from the species named
# STUDY_CONDITIONS: Homo sapiens
What abundance fitness was measured for each of the following?
Give only the figure.

input: abundance fitness lookup needed for `I37H` , thanks.
output: -0.161

input: abundance fitness lookup needed for `H41K` , thanks.
output: -0.103

input: abundance fitness lookup needed for `Y1L` , thanks.
output: -0.086

input: abundance fitness lookup needed for `K44P` , thanks.
output: -0.599

input: abundance fitness lookup needed for `C24H` , thanks.
output: -0.896

input: abundance fitness lookup needed for `Q33Y` , thanks.
output: -0.328

input: abundance fitness lookup needed for `G13S` , thanks.
output: -0.055

input: abundance fitness lookup needed for `Q8T` , thanks.
output: 0.015

input: abundance fitness lookup needed for `K34P` , thanks.
output: -0.084

input: abundance fitness lookup needed for `E22V` , thanks.
output: -0.203

input: abundance fitness lookup needed for `N54S` , thanks.
output: 0.136

input: abundance fitness lookup needed for `K25E` , thanks.
output: 0.036

input: abundance fitness lookup needed for `H41D` , thanks.
output: 0.051

input: abundance fitness lookup needed for `R42T` , thanks.
output: -0.016

input: abundance fitness lookup needed for `F5I` , thanks.
output: -0.022

input: abundance fitness lookup needed for `V6G` , thanks.
output: -0.746

input: abundance fitness lookup needed for `Y16V` , thanks.
output: -0.062

input: abundance fitness lookup needed for `K2W` , thanks.
output: -0.308

input: abundance fitness lookup needed for `Y38H` , thanks.
output: -0.414
